# Test Method Notes: Solubility of drugs in aqueous cyclodextrin solubilizer solution (saturation by stirring with excess drug, room temperature, about 24 hours; spectrophotometric)
# Condition Set: 50% aqueous hydroxypropyl-beta-cyclodextrin, Solubilities of steroids in 50% aqueous solutions of hydroxypropyl-β-cyclodextrin, Table 2, d.s. 4.7
# Procedure: The solutions of solubilizer in water were saturated by stirring with excess of drug at room temperature for about 24 hours. The resulting suspensions were clarified either by filtration through a sintered glass filter or by centrifugation. Concentration of hormones in clarified solutions was measured spectrophotometrically. In these experiments drugs were solubilized with cyclodextrin derivatives with constant degrees of substitution and which are given in the footnote to Table 1.
Consider the following molecules; for each one, report its solubility at 24 h.
Give bare numbers, in mg/mL.

1. CC(=O)[C@H]1CC[C@H]2[C@@H]3CCC4=CC(=O)CC[C@]4(C)[C@H]3CC[C@]12C [progesterone]
30

Proceeding to the next molecule to report its solubility at 24 h.
Quick check: solubility at 24 h of C[C@]12CC[C@H]3[C@@H](CCC4=CC(=O)CC[C@@]43C)[C@@H]1CC[C@@H]2O [testosterone] ?
56

* * *

# Test Method Notes: physchem
# Condition Set: water
# Experimental: The solutions of solubilizer in water were saturated by stirring with excess of drug at room temperature for about 24 hours. The resulting suspensions were clarified either by filtration through a sintered glass filter or by centrifugation. Concentration of hormones in clarified solutions was measured spectrophotometrically. In these experiments drugs were solubilized with cyclodextrin derivatives with constant degrees of substitution and which are given in the footnote to Table 1.
Consider the following compounds; for each one, report its solubility.

Some solved entries appear below for comparison.
1. CC1=C(/C=C/C(C)=C/C=C/C(C)=C/C=O)C(C)(C)CCC1
< 0.07 mg/mL
2. C#C[C@]1(O)CC[C@H]2[C@@H]3CCC4=CC(=O)CC[C@]4(C)[C@H]3CC[C@@]21C
< 0.2 mg/mL
3. CN1CCc2cccc3c2[C@H]1Cc1ccc(O)c(O)c1-3
20 mg/mL
4. CC(C)NNC(=O)c1ccncc1 [iproniazid phosphate]
30 mg/mL

Proceeding to the next compound to report its solubility.
Quick check: solubility of CC1=C(/C=C/C(C)=C/C=C/C(C)=C/C(=O)O)C(C)(C)CCC1 [retinoic acid, all trans] ?
< 0.07 mg/mL

* * *

# Test Method Notes: Solubility of drugs in aqueous cyclodextrin solubilizer solution (saturation by stirring with excess drug, room temperature, about 24 hours; spectrophotometric)
# Condition Set: hydroxypropyl-γ-cyclodextrin in water, Solubility in solubilizer solution, Table 1, hydroxypropyl-γ-cyclodextrin in water, degree of substitution 6-7
Measurement Kind: solubility at 24 h (µg/mL)
One number for each entry, in µg/mL.

Quick check: solubility at 24 h of Cc1cc(C(C)(C)C)c(O)c(C(C)(C)C)c1 [butylated hydroxytoluene] ?
200

* * *

# Test Method Notes: Solubility of drugs in water
# Condition Set: water
# Method: The solutions of solubilizer in water were saturated by stirring with excess of drug at room temperature for about 24 hours. The resulting suspensions were clarified either by filtration through a sintered glass filter or by centrifugation. Concentration of hormones in clarified solutions was measured spectrophotometrically. In these experiments drugs were solubilized with cyclodextrin derivatives with constant degrees of substitution and which are given in the footnote to Table 1.
Measurement Kind: solubility (mg/mL)
Give bare numbers, in mg/mL.

1) CC(=O)Nc1ccc(O)cc1
11

Proceeding to the next molecule to report its solubility.
Quick check: solubility of CC1OC(OC2CC(O)C3(CO)C4C(O)CC5(C)C(C6=CC(=O)OC6)CCC5(O)C4CCC3(O)C2)C(O)C(O)C1O (stereo not shown) ?
13
